Origin of measurements: ChEMBL document CHEMBL1124929

# MEASURED_ON: UniProtKB Q5EM59
# Sequence (Q5EM59 as listed by the source): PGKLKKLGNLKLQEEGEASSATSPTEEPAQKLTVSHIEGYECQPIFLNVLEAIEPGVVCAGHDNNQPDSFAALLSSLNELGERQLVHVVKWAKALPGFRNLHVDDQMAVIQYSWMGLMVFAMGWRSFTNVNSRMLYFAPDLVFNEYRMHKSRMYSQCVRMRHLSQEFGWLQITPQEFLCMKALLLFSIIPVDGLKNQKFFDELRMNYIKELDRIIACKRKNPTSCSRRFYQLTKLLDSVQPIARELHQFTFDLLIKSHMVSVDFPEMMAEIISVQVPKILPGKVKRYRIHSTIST
# ASSAY: Relative binding affinity(RBA) for 50% displacement of [3H]mibolerone from Androgen receptor compared to testorone
READOUT_NAME: RBA

Examples with their reported RBA follow.
CCC1Cc2cc(OC(C)=O)ccc2-c2c(C=O)c3cc(OC(C)=O)ccc3n21 (configuration not stated) = 0.03
CC(=O)Oc1ccc2c(c1)CCn1c-2cc2ccc(OC(C)=O)cc21 = 0.2
CCC1Cc2cc(OC(C)=O)ccc2-c2cc3cc(OC(C)=O)ccc3n21 (configuration not stated) = 0.23
CCC1Cc2cc(OC(C)=O)ccc2-c2cc3ccc(OC(C)=O)cc3n21 (configuration not stated) = 2.5

a = CC(=O)Oc1ccc2c(c1)CC(C)n1c-2cc2cc(OC(C)=O)ccc21 (configuration not stated)
b = CCc1cc2cc(OC(C)=O)ccc2c2cc3ccc(OC(C)=O)cc3n12
## Input // max by RBA over [ a , b ] The response must carry the label of the picked entry.
## Output a
(a: 0.2, b: 0.01)
